# measuredTarget: hPAD4 enzyme (Homo sapiens (Human), UniProt Q9UM07)
# Sequence (Q9UM07 whole entry): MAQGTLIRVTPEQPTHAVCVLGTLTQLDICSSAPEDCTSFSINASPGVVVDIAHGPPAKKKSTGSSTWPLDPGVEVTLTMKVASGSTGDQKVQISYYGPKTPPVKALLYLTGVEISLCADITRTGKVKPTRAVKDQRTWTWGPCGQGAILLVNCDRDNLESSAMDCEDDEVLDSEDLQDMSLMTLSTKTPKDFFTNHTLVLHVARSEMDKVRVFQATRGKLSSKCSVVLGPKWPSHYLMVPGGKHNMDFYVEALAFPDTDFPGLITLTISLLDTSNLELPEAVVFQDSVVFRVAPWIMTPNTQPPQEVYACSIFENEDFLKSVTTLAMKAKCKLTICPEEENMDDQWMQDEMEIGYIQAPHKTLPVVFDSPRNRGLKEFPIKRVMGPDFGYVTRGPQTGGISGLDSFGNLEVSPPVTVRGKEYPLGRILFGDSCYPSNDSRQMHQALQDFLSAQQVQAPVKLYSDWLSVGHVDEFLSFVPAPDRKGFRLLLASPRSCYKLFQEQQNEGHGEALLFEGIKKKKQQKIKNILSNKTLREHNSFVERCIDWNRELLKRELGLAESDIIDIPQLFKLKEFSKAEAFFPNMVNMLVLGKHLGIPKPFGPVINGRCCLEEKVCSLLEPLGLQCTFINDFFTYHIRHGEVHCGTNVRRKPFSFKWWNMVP
# assaySummary: RFMS2 assay (RapidFire mass spectrometry, TSTGGRQGSHH peptide substrate)
# Type: biochemical
# experimentalConditions: 35 nM recombinant human PAD4, 500 μM TSTGGRQGSHH peptide, 30 minutes at room temperature; read-out: RFMS 2 IC50
propertyMeasured: IC50

The examples below pair each entry with its known result.
molecule	measuredTarget	IC50
Cn1c(-c2cc3ccccc3n2CC2CC2)nc2cc3c(cc21)CCN(CC(N)CC(F)(F)F)C3=O (stereo not shown)	hPAD4 enzyme (Homo sapiens (Human), UniProt Q9UM07)	> 1000 nM
CC(C)[C@@H](N)CN1CCc2cc3c(cc2C1=O)nc(-c1cc2ccccc2n1CC1CC1)n3C	hPAD4 enzyme (Homo sapiens (Human), UniProt Q9UM07)	> 1000 nM
C=CCn1c(-c2nc3cc4c(cc3n2C)CCN(C[C@@H](C)N)C4=O)cc2ccccc21	hPAD4 enzyme (Homo sapiens (Human), UniProt Q9UM07)	501 to 1000 nM

Continue with the molecule presented below.
Notebook: "C[C@@H](N)CN1CCc2cc3c(cc2C1=O)nc(-c1cc2cccc(Cl)c2n1CC1CC1)n3C" , IC50 read as 101 to 500 nM

---

Overview of recorded pIC50 for various molecules
# measuredTarget: hPAD4 enzyme (Homo sapiens (Human), UniProt Q9UM07)
# assaySummary: RFMS2 assay (RapidFire mass spectrometry, TSTGGRQGSHH peptide substrate)
# Assay type: biochemical
# experimentalConditions: 35 nM recombinant human PAD4, 500 μM TSTGGRQGSHH peptide, 30 minutes at room temperature; read-out: RFMS 2 IC50
pIC50: −log10 of the molar value.

The examples below pair each entry with its known result.
molecule	measuredTarget	obsValue
CC(C)c1ccc2cc(-c3nc4cc5c(cc4n3C)CCN(C[C@@H](C)N)C5=O)n(CC3CC3)c2c1	hPAD4 enzyme (Homo sapiens (Human), UniProt Q9UM07)	6.30 to 7.00
CN1CC(COc2cccc3cc(-c4nc5cc6c(cc5n4C)CCN(C[C@H](N)CF)C6=O)n(CC4CC4)c23)CC1=O (some centres unmarked)	hPAD4 enzyme (Homo sapiens (Human), UniProt Q9UM07)	6.30 to 7.00

Notebook: "COc1cccc2cc(-c3nc4cc5c(cc4n3C)CCN(C[C@H](N)CF)C5=O)n(Cc3cc(C#N)no3)c12" , pIC50 read as 6.30 to 7.00

Notebook: "COc1cccc2cc(-c3nc4cc5c(cc4n3C)CCN(C[C@H](N)CF)C5=O)n(Cc3ccns3)c12" , pIC50 read as 7.00 to 7.96

---

Overview of recorded IC50 for various compounds
# measuredTarget: UniProtKB Q9UM07
# assaySummary: RFMS1 assay (RapidFire mass spectrometry, BAEE substrate)
# Assay type: biochemical
# experimentalConditions: 5 nM hPAD4, 250 μM BAEE, 30 min preincubation at 37° C., 90 min reaction; read-out: RFMS 1 IC50
# Experimental: Compounds were solubilized in 100% DMSO to achieve a 10 mM compound concentration. Compound stock solutions were stored at RT. A series of dilutions were prepared in DMSO and mixed 8 times with 20 μL mixing volume. Final top concentration of compound in the assay is 50 μM. […] MRM transition of product and internal standard were monitored at m/z 424.5 to 350.4 and m/z 293 to 247 respectively. […]

The examples below pair each entry with its known result.
COC1CCN(c2ccc3cc(-c4nc5cc6c(cc5n4C)CCN(C[C@H]4COCCN4)C6=O)n(CC4CC4)c3c2)CC1 501 to 1000 nM
Cc1cc(C(N)=O)c(F)cc1-c1ccc2cc(-c3nc4cc5c(cc4n3C)CCN(C[C@H]3COCCN3)C5=O)n(CC3CC3)c2n1 101 to 500 nM

For "Cn1c(-c2cc3ccc(-c4cccc(O)c4F)nc3n2CC2CC2)nc2cc3c(cc21)CCN(C[C@H]1COCCN1)C3=O" on UniProtKB Q9UM07, measured IC50 was 501 to 1000 nM

For "Cc1cc(N2CC(C)(C)OC2=O)ccc1-c1ccc2cc(-c3nc4cc5c(cc4n3C)CCN(C[C@H](N)CF)C5=O)n(CC3CC3)c2n1" on UniProtKB Q9UM07, measured IC50 was 11 to 100 nM

For "COc1cccc2cc(-c3nc4cc5c(cc4n3C)CCN(C[C@H](N)CF)C5=O)n(Cc3nccs3)c12" on UniProtKB Q9UM07, measured IC50 was 101 to 500 nM

For "COCC(=O)N1CCC(c2cccc3cc(-c4nc5cc6c(cc5n4C)CCN(C[C@H]4COCCN4)C6=O)n(CC4CC4)c23)CC1" on UniProtKB Q9UM07, measured IC50 was 11 to 100 nM
